Documented Plate 2 (% conversion) across a set of compounds
# Tgt: His6-AspH315–758 (human aspartate/asparagine-β-hydroxylase, AspH) (Homo sapiens, UniProt Q12797)
# Construct: N-Terminally His6-tagged human AspH315–758 (His6-AspH315–758) was produced in E. coli BL21 (DE3) cells; made in house; host or cells: E. coli BL21 (DE3), pET-28a(+) vector
# Sequence (Q12797 315-758): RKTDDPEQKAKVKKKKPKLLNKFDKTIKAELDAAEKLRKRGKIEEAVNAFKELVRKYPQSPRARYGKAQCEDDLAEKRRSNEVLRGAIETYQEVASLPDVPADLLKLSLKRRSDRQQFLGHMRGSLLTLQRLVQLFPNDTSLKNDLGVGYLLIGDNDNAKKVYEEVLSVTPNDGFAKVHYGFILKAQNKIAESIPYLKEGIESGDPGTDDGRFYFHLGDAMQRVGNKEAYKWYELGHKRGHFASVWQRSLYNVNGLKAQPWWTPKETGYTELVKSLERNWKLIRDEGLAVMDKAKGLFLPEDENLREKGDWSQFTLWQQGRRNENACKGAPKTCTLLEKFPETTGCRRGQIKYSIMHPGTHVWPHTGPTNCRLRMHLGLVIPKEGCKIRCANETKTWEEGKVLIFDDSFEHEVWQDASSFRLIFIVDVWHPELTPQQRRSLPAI
# Assay notes: SPE-MS AspH inhibition assay (LOPAC screen at fixed 20 μM and IC50 dose-response), hydroxylation of cyclic peptide hFX-CP101–119
# Assay type: biochemical
# Condition: LOPAC compound at 20uM, plate 2; conversion of substrate peptide
Where a name gives a salt, the structure may show the parent alone.
Provide the reading as a plain figure in %.

- Compound: "COC(=O)C1=C(C)NC(C)=C(C(=O)O[C@@H]2CCCN(Cc3ccccc3)C2)[C@@H]1c1cccc([N+](=O)[O-])c1.Cl (racemic) [Benidipine hydrochloride]"
  Val: 31.43
- Compound: "CCN(CC)C(=O)c1ccc(O)c(OC)c1 [Vanillic acid diethylamide]"
  Val: 35.22

## Input Answer with the recorded Plate 2 (% conversion) for the compound listed here: O=c1[nH]c(=S)[nH]c(-c2ccccc2)c1Cc1c(O)ccc2ccccc12
## Output 25.50

## Input Fill in reported Plate 2 (% conversion) for this entry: O=P(O)(O)C(Cl)(Cl)P(=O)(O)O [Clodronic acid, reference compound]
## Output 2.30

## Input Using known records, supply Plate 2 (% conversion) for CN1C[C@H](O)[C@@H](O)[C@H](O)[C@H]1CO
## Output 34.79

## Input Given CN(C)C(N)=NCCC[C@H](N)C(=O)O.Cl [N^G,N^G-Dimethylarginine hydrochloride] , respond with its Plate 2 (% conversion).
## Output 37.98

## Input Please give measured Plate 2 (% conversion) of the following entry: CCC1(C)CC(=O)NC1=O (stereo not drawn) [Ethosuximide]
## Output 37.85

## Input Please report Plate 2 (% conversion) for the following compound: O=c1c2ccccc2[nH]c(=S)n1CCN1CCC(=C(c2ccc(F)cc2)c2ccc(F)cc2)CC1
## Output 21.33

## Input Using known records, supply Plate 2 (% conversion) for Clc1ccc(N2C[C@H]3CC[C@@H](C2)N3)nn1
## Output 32.84

## Input Name the recorded Plate 2 (% conversion) of the compound listed here: COC(=O)c1c(C)[nH]c(C)c1C(=O)c1ccccc1Cc1ccccc1
## Output 38.85

## Input Report measured Plate 2 (% conversion); entry is NS(=O)(=O)c1cc2c(cc1Cl)NCNS2(=O)=O [Hydrochlorothiazide]
## Output 36.43

## Input # return recorded Plate 2 (% conversion) for entry CNCCC(Oc1ccc(C(F)(F)F)cc1)c1ccccc1 (stereo not drawn) [Fluoxetine hydrochloride]
## Output 43.85

## Input Let me know recorded Plate 2 (% conversion) for N[C@@H](Cc1ccc(F)cc1)C(=O)O , thanks.
## Output 36.49

## Input Consider the compound N[C@@H](Cc1c[nH]c2ccc(O)cc12)C(=O)O [5-Hydroxy-L-tryptophan] . State its measured Plate 2 (% conversion).
## Output 37.59

## Input Please report Plate 2 (% conversion) for the following compound: Nc1ncnc2c1c(-c1ccc(Oc3ccccc3)cc1)cn2C1CCCC1
## Output 45.34

## Input Supply recorded Plate 2 (% conversion) for CC(=O)C(C)=O here.
## Output 38.17

## Input Give Plate 2 (% conversion) for the following compound: C[C@@](Cc1ccc(O)c(O)c1)(NN)C(=O)O [S-(-)-Carbidopa]
## Output 7.52

## Input Provide only the value of recorded Plate 2 (% conversion) for O=C(O)Cc1ccccc1Nc1c(Cl)cccc1Cl [Diclofenac sodium]
## Output 32.33

---

# Tgt: His6-AspH315–758 (human aspartate/asparagine-β-hydroxylase, AspH) (Homo sapiens)
# Construct: N-Terminally His6-tagged human AspH315–758 (His6-AspH315–758) was produced in E. coli BL21 (DE3) cells; made in house; host or cells: E. coli BL21 (DE3), pET-28a(+) vector
# Assay notes: SPE-MS AspH inhibition assay (LOPAC screen at fixed 20 μM and IC50 dose-response), hydroxylation of cyclic peptide hFX-CP101–119
# Format: biochemical
Measured % conversion values are reported for all entries that follow.
# number only, unit % dropped from output

- Compound: "CCCCCCCCc1ccc(-c2ccc(C(=O)O)cc2)cc1"
  Tgt: "His6-AspH315–758 (human aspartate/asparagine-β-hydroxylase, AspH) (Homo sapiens)"
  % conversion [%]: 33.36
- Compound: "Fc1ccc2[nH]c(CN3CCN(c4ccccn4)CC3)cc2c1"
  Tgt: "His6-AspH315–758 (human aspartate/asparagine-β-hydroxylase, AspH) (Homo sapiens)"
  % conversion [%]: 39.74
- Compound: "O=C(O)/C=C\\C(=O)O.O=C(O)/C=C\\C(=O)O.c1cc(CN2CCCCC2)cc(OCCCNc2nc3ccccc3s2)c1 [SKF 95282 dimaleate]"
  Tgt: "His6-AspH315–758 (human aspartate/asparagine-β-hydroxylase, AspH) (Homo sapiens)"
  % conversion [%]: 24.14

Switching to the query record.
## Input Supply measured % conversion of Cl.c1ccc2c(N3CCNCC3)cccc2c1 [1-(1-Naphthyl)piperazine hydrochloride] in your reply.
## Output 30.74

---

Documented inhibition at 20 µM across a set of compounds
# Tgt: His6-AspH315–758 (human aspartate/asparagine-β-hydroxylase, AspH) (Homo sapiens, UniProt Q12797)
# Construct: N-Terminally His6-tagged human AspH315–758 (His6-AspH315–758) was produced in E. coli BL21 (DE3) cells; made in house; host or cells: E. coli BL21 (DE3), pET-28a(+) vector
# Assay notes: SPE-MS AspH inhibition assay (LOPAC screen at fixed 20 μM and IC50 dose-response), hydroxylation of cyclic peptide hFX-CP101–119
# Format: biochemical
Counter-ions that a name gives are not always drawn.
Return type: number; implicit unit %.

- Compound: "O=C(O)CNC(=O)C(CS)Cc1ccccc1 (racemic)"
  Unit: "%"
  Val: -0.22
- Compound: "Cc1cc2c(s1)Nc1ccccc1N=C2N1CCN(C)CC1"
  Unit: "%"
  Val: -17.7
- Compound: "N#C/C(=C\\c1ccc(O)c(O)c1)C(N)=S [Tyrphostin 47, reference compound]"
  Unit: "%"
  Val: 101
- Compound: "Nc1c(S(=O)(=O)O)cc(Nc2ccc(Nc3nc(Cl)nc(Nc4cccc(S(=O)(=O)O)c4)n3)c(S(=O)(=O)O)c2)c2c1C(=O)c1ccccc1C2=O [Reactive Blue 2, reference compound]"
  Unit: "%"
  Val: 95.3
- Compound: "O.O=c1cc(-c2ccccc2)oc2c(O)c(O)ccc12 [7,8-Dihydroxyflavone hydrate, reference compound]"
  Unit: "%"
  Val: 99
- Compound: "O.c1cnc2c(c1)ccc1cccnc12 [1,10-Phenanthroline monohydrate, reference compound]"
  Unit: "%"
  Val: 97.8

## Input Give the reported inhibition at 20 µM for this compound. NNCCc1ccccc1 [Phenelzine sulfate]
## Output -1.74

## Input Return value of inhibition at 20 µM for input C[N+](C)(C)CCOC(=O)CCC(=O)OCC[N+](C)(C)C [Succinylcholine chloride] , no commentary.
## Output -8.69

## Input Tell me measured inhibition at 20 µM for CN1CCc2cccc(Cl)c2CC1 please.
## Output -11.9

---

# Tgt: His6-AspH315–758 (human aspartate/asparagine-β-hydroxylase, AspH) (Homo sapiens)
# Construct: N-Terminally His6-tagged human AspH315–758 (His6-AspH315–758) was produced in E. coli BL21 (DE3) cells; made in house; host or cells: E. coli BL21 (DE3), pET-28a(+) vector
# Assay notes: SPE-MS AspH inhibition assay (LOPAC screen at fixed 20 μM and IC50 dose-response), hydroxylation of cyclic peptide hFX-CP101–119
# Format: biochemical
# Condition: read-out: Inhibition at 20 µM [%]
Reported inhibition at 20 µM values are given for each entry in this list.
Give just the number in %; leave the unit off.

These recorded examples may help you get a feel for the data.
- Compound: "Nc1c(S(=O)(=O)O)cc(Nc2ccc(Nc3nc(Cl)nc(Nc4cccc(S(=O)(=O)O)c4)n3)c(S(=O)(=O)O)c2)c2c1C(=O)c1ccccc1C2=O [Reactive Blue 2, reference compound]"
  Tgt: "His6-AspH315–758 (human aspartate/asparagine-β-hydroxylase, AspH) (Homo sapiens)"
  Readout type: "inhibition at 20 µM"
  Unit: "%"
  Val: 95.3
- Compound: "CNc1ccc2oc(C[C@H]3O[C@@]4(CC[C@H]3C)O[C@H]([C@H](C)C(=O)c3ccc[nH]3)[C@H](C)C[C@H]4C)nc2c1C(=O)O [Calcimycin, calcimycin, reference compound]"
  Tgt: "His6-AspH315–758 (human aspartate/asparagine-β-hydroxylase, AspH) (Homo sapiens)"
  Readout type: "inhibition at 20 µM"
  Unit: "%"
  Val: 101
- Compound: "O.c1cnc2c(c1)ccc1cccnc12 [1,10-Phenanthroline monohydrate, reference compound]"
  Tgt: "His6-AspH315–758 (human aspartate/asparagine-β-hydroxylase, AspH) (Homo sapiens)"
  Readout type: "inhibition at 20 µM"
  Unit: "%"
  Val: 97.8

## Input Provide inhibition at 20 µM value for the following compound: O.O=c1cc(-c2ccccc2)oc2c(O)c(O)ccc12 [7,8-Dihydroxyflavone hydrate, reference compound]
## Output 99

## Input Answer with the recorded inhibition at 20 µM for the compound listed here: N#C/C(=C\c1ccc(O)c(O)c1)C(N)=S [Tyrphostin 47, reference compound]
## Output 101
